Where a SMILES comes first, the peptide text is derived from it. Bridges are numbered along the chain shown (N, C = ends). [ ]: non-standard residue; d: D form. The star is where a group is joined. hPhe(3-Cl-4-CF3) = N[C@@H](CCc1ccc(C(F)(F)F)c(Cl)c1)C(=O)O; NPrPhe(4-CF3) = CCCN[C@@H](Cc1ccc(C(F)(F)F)cc1)C(=O)O; NMeGly(cPent) = CN[C@H](C(=O)O)C1CCCC1; NMeD = CN[C@@H](CC(=O)O)C(=O)O; NMeL = CN[C@@H](CC(C)C)C(=O)O; Pip = O=C(O)[C@@H]1CCCCN1; Morpholide = C1CN(*)CCO1; Ac5c = NC1(C(=O)O)CCCC1; NEtG = CCNCC(=O)O; Sar = CNCC(=O)O
For reference, IC50 measured on human lung cancer strain NCI-H441:
Supply the numeric figure in µM, leaving out any unit text.

COMPOUND	SYSTEM_TESTED	IC50 (µM)
CCCN1C(=O)CN(C)C(=O)CN(CC)C(=O)[C@H]([C@@H](C)CC)NC(=O)[C@H](CC(C)C)N(C)C(=O)C[C@@H](C(=O)N2CCOCC2)N(C)C(=O)[C@H](C2CCCC2)N(C)C(=O)C2(CCCC2)NC(=O)[C@@H]2CCCCN2C(=O)[C@H](CCc2ccc(C(F)(F)F)c(Cl)c2)NC(=O)CN(C)C(=O)[C@@H]1Cc1ccc(C(F)(F)F)cc1 [PP0297] ([NMeL]I[NEtG][Sar][NPrPhe(4-CF3)][Sar][hPhe(3-Cl-4-CF3)][Pip][Ac5c][NMeGly(cPent)][NMeD]-Morpholide; lactam N-11)	human lung cancer strain NCI-H441	0.0743
CC[C@H](C)[C@@H]1NC(=O)[C@H](COC)N(C)C(=O)C[C@@H](C(=O)N(CC)CC)N(C)C(=O)[C@H](C2CCCC2)N(C)C(=O)C2(CC(C)(C)C2)NC(=O)[C@@H]2C[C@H](C)CN2C(=O)[C@H](CCc2ccc(C(F)(F)F)c(Cl)c2)NC(=O)CN(C)C(=O)[C@H](Cc2ccc(C)cc2)N2CC/C=C\C[C@@H](C2=O)N(C)C(=O)CN(C)C1=O	human lung cancer strain NCI-H441	0.0077
CCO[C@@H]1C[C@H]2C(=O)NC3(CCC3)C(=O)N(C)[C@@H](C3CCCC3)C(=O)N(C)[C@H](C(=O)N(C)C)CC(=O)N(C)[C@@H](CC(C)C)C(=O)N[C@@H]([C@@H](C)CC)C(=O)N(C)CC(=O)N(C)[C@H]3C/C=C\CCN(C3=O)[C@@H](CC3CCC(F)(F)CC3)C(=O)N(C)CC(=O)N[C@@H](CCc3cc(F)c(C(F)(F)F)c(F)c3)C(=O)N2C1	human lung cancer strain NCI-H441	0.0136

Switching to the query record.
Input: Specify the recorded IC50 for "CCO[C@@H]1C[C@H]2C(=O)NC3(CC(C)(C)C3)C(=O)N(C)[C@@H](C3CCCC3)C(=O)N(C)[C@H](C(=O)N(C)C)CC(=O)N(C)[C@@H](CC(C)C)C(=O)N[C@@H]([C@@H](C)CC)C(=O)N(C3CC3)CC(=O)N(C)[C@H]3C/C=C\CCN(C3=O)[C@@H](Cc3ccc(C)cc3)C(=O)N(C)CC(=O)N[C@@H](CCc3cc(F)c(C(F)(F)F)c(F)c3)C(=O)N2C1" , system: human lung cancer strain NCI-H441.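 Also: cell proliferation inhibition after four days measured by CellTiter-Glo.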
Output: 0.0057
